# measuredOn: Fibroblast growth factor receptor 2 (Homo sapiens)
# Sequence (P21802 whole entry): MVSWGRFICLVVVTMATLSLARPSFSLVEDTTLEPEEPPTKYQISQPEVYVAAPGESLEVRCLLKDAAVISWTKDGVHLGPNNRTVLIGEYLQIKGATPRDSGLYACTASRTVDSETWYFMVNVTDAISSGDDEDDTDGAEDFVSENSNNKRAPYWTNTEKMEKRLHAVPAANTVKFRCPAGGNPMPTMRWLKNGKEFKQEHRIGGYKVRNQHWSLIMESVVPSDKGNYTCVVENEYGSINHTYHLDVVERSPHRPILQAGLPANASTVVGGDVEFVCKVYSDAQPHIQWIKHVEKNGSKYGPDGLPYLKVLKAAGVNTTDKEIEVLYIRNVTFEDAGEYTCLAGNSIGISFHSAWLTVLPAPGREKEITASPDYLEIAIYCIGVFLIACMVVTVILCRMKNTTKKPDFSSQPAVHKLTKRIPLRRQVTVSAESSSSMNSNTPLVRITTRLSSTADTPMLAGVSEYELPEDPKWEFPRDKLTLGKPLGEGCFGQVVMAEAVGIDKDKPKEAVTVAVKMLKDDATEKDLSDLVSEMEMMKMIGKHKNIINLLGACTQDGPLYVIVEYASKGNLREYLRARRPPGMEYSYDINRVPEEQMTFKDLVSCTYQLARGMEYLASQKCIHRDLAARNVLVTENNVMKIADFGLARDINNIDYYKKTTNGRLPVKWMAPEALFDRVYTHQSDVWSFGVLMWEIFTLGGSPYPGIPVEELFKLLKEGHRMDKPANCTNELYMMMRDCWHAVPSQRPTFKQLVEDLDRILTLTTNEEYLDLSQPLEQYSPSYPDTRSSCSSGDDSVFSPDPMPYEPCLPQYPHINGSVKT
# methodDescription: Inhibition of recombinant FGFR2 (unknown origin) using poly (Glu, Tyr) 4:1 as substrate after 60 mins by ELISA based spectrophotometric method
pIC50: −log10 of the molar value.

chemSmiles | pIC50
CNC(=O)c1cccc2cc(Oc3ccnc(NC(=O)c4ccc(N5CCN(C)CC5)cc4)c3)ccc12 | 8.35

---

# methodDescription: AUClast in Sprague-Dawley rat at 3 mg/kg, po administered via gavage by LC-MS/MS analysis
# Format: ADME, organism-based
# Set-up: dose 3 mg/kg, time 0 - last, route oral
# runConditions: in vivo
measuredMetric: AUC(0-t) (ng·h/mL)

chemSmiles | unitSpec | observed
CNC(=O)c1cccc2cc(Oc3ccnc(NC(=O)c4ccc(N5CCN(C)CC5)cc4)c3)ccc12 | ng·h/mL | 21.4

---

# measuredOn: Vascular endothelial growth factor receptor 2 (Homo sapiens, UniProt P35968)
# Sequence (P35968 whole entry): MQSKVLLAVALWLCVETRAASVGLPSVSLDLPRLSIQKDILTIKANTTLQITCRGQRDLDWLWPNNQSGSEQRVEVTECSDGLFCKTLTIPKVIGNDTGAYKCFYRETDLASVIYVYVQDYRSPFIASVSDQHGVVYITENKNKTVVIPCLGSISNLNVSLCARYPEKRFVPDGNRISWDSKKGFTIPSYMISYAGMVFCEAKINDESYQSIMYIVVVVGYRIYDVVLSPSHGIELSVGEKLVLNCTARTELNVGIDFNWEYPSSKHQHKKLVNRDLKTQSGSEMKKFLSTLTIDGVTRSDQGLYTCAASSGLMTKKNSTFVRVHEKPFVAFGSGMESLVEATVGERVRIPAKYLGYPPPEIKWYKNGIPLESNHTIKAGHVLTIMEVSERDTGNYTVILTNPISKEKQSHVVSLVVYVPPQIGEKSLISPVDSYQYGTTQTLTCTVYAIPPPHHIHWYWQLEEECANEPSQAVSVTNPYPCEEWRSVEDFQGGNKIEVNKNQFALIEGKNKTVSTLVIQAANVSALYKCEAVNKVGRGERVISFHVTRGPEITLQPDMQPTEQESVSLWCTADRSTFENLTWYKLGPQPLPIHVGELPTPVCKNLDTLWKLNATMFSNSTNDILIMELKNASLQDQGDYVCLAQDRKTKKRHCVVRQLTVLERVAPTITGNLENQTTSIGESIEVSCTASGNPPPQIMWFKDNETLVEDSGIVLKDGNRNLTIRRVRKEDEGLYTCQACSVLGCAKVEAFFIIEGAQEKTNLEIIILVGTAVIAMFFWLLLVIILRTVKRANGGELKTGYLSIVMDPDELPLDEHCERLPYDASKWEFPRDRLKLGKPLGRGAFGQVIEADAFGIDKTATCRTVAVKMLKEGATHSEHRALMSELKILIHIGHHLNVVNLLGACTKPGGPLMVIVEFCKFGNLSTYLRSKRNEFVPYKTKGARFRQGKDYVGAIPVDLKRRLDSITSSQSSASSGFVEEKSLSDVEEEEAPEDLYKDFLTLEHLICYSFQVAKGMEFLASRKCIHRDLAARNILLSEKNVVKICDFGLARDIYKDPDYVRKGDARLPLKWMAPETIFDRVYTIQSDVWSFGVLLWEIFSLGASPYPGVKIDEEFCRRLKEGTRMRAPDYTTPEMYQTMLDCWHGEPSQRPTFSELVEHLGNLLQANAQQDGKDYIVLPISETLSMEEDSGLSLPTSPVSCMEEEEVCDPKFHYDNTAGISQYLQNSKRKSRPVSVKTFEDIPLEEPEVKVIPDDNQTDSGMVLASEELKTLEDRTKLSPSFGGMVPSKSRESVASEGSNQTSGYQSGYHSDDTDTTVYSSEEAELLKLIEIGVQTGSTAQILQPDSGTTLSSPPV
# methodDescription: Inhibition of recombinant VEGFR2 (unknown origin) using poly (Glu, Tyr) 4:1 as substrate after 60 mins by ELISA based spectrophotometric method
measuredMetric: IC50 (nM)

chemSmiles | measuredOn | measuredMetric | observed
CNC(=O)c1cccc2cc(Oc3ccnc(NC(=O)c4ccc(N5CCN(C)CC5)cc4)c3)ccc12 | Vascular endothelial growth factor receptor 2 (Homo sapiens, UniProt P35968) | IC50 | 2.9

---

# measuredOn: Fibroblast growth factor receptor 1 (Homo sapiens, UniProt P11362)
# Sequence (P11362 whole entry): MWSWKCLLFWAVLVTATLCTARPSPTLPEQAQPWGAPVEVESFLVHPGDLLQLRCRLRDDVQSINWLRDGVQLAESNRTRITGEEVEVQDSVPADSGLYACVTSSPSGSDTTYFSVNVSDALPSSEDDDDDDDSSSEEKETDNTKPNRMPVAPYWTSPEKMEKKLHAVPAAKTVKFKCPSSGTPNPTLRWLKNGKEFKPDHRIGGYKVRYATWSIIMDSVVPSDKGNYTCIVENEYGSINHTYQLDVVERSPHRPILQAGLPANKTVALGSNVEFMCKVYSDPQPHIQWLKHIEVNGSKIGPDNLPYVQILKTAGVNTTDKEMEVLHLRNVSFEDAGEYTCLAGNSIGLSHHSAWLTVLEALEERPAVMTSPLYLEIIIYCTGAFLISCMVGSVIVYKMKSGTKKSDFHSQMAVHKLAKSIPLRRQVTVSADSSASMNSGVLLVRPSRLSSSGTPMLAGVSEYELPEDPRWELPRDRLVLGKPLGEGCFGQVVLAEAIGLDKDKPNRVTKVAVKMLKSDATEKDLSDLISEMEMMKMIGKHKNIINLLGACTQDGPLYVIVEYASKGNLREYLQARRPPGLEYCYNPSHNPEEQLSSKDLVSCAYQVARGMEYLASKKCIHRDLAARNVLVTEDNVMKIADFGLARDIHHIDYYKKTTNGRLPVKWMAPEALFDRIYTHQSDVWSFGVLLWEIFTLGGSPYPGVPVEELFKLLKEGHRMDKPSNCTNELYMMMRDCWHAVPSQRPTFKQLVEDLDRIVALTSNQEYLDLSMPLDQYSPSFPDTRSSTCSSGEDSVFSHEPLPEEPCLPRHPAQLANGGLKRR
# methodDescription: Inhibition of recombinant FGFR1 (unknown origin) using poly (Glu, Tyr) 4:1 as substrate after 60 mins by ELISA based spectrophotometric method
pIC50: −log10 of the molar value.
Rule: pIC50 of 8 or more gives Fulfilled; anything lower gives Not fulfilled.

compound | answerLabel
CCNC(=O)Nc1cccc2cc(Oc3ccnc(NC(=O)c4ccc(N5C[C@@H](C)N[C@@H](C)C5)cc4)c3)ccc12 | Not fulfilled
CNC(=O)c1cccc2cc(Oc3ccnc(NC(=O)c4ccc(N5C[C@@H](C)N[C@@H](C)C5)cc4)c3)ccc12 | Fulfilled
CNC(=O)c1cccc2cc(Oc3ccnc(NC(=O)c4ccc(N5CC(C)OC(C)C5)cc4)c3)ccc12 (configuration not stated) | Fulfilled
CNC(=O)c1cccc2cc(Oc3ccnc(NC(=O)c4ccc(OCCN5CC(F)C5)cc4)c3)ccc12 | Fulfilled
CNC(=O)c1cccc2cc(Oc3ccnc(NC(=O)c4ccc(N5C[C@@H](C)N[C@@H](C)C5)cc4F)c3)ccc12 | Not fulfilled
COc1cc(CCOc2ccnc(NC(=O)c3ccc(N4C[C@@H](C)N[C@@H](C)C4)cc3)c2)cc(OC)c1 | Not fulfilled
CCNC(=O)Nc1ccc(Oc2ccnc(NC(=O)c3ccc(N4C[C@@H](C)N[C@@H](C)C4)cc3)c2)c(OC)c1 | Not fulfilled
CNC(=O)c1cccc2cc(Oc3ccnc(NC(=O)c4ccc(C5CCNCC5)cc4)c3)ccc12 | Fulfilled
CNC(=O)c1cccc2cc(Oc3ccnc(NC(=O)c4ccc(N5CCN(CCO)CC5)cc4)c3)ccc12 | Fulfilled
COc1cc(OC)c(F)c(COc2ccc(NC(=O)c3ccc(N4C[C@@H](C)N[C@@H](C)C4)cc3)nc2)c1F | Not fulfilled
CNC(=O)c1cccc2cc(Oc3ccnc(NC(=O)c4ccc(OCCN5CCCC5)cc4)c3)ccc12 | Fulfilled
CNC(=O)c1cccc2cc(Oc3ccnc(NC(=O)c4ccc(N5CCOCC5)cc4)c3)ccc12 | Fulfilled
CNC(=O)c1cccc2cc(Oc3ccnc(NC(=O)c4cnn(CCO)c4)c3)ccc12 | Not fulfilled

---

# methodDescription: Clearance in Sprague-Dawley rat at 1 mg/kg, iv by LC-MS/MS analysis
# Assay type: ADME, organism-based
# runConditions: in vivo

chemSmiles | clearance, mL/min/kg
CNC(=O)c1cccc2cc(Oc3ccnc(NC(=O)c4ccc(N5CCN(C)CC5)cc4)c3)ccc12 | 346

---

# measuredOn: Fibroblast growth factor receptor 1 (Homo sapiens, UniProt P11362)
# methodDescription: Inhibition of recombinant FGFR1 (unknown origin) using poly (Glu, Tyr) 4:1 as substrate after 60 mins by ELISA based spectrophotometric method
measuredMetric: IC50 (nM)

chemSmiles | measuredOn | measuredMetric | observed
COC(=O)c1cccc2cc(Oc3ccnc(NC(=O)c4ccc(N5C[C@@H](C)N[C@@H](C)C5)cc4)c3)ccc12 | Fibroblast growth factor receptor 1 (Homo sapiens, UniProt P11362) | IC50 | 4.6
CNC(=O)c1cccc2cc(Oc3ccnc(NC(=O)c4coc(N5CCN(C)CC5)n4)c3)ccc12 | Fibroblast growth factor receptor 1 (Homo sapiens, UniProt P11362) | IC50 | 2.8
CNC(=O)c1cccc2cc(Oc3ccnc(NC(=O)c4csc(N5CCN(C)CC5)n4)c3)ccc12 | Fibroblast growth factor receptor 1 (Homo sapiens, UniProt P11362) | IC50 | 7.6

---

# measuredOn: Fibroblast growth factor receptor 1 (Homo sapiens, UniProt P11362)
# methodDescription: Inhibition of recombinant FGFR1 (unknown origin) using poly (Glu, Tyr) 4:1 as substrate after 60 mins by ELISA based spectrophotometric method

chemSmiles | IC50 [nM]
CNC(=O)c1cccc2cc(Oc3ccnc(NC(=O)c4ccc(OCCN5CC(F)(F)C5)cc4)c3)ccc12 | 6.1
C=CC(=O)Nc1ccc(C(=O)Nc2cc(Oc3ccc4c(C(=O)NC)cccc4c3)ccn2)cc1 | 12.8
CNC(=O)c1cccc2cc(Oc3ccnc(NC(=O)c4ccc(NCC5(O)CCOCC5)cc4)c3)ccc12 | 6.2
CNC(=O)c1cccc2cc(Oc3ccnc(NC(=O)c4cnc(N5C[C@@H](C)N[C@@H](C)C5)nc4)c3)ccc12 | 10.2

Attribution: ChEMBL document CHEMBL4270521
